SYSTEM: mouse GPR120 (mGPR120) (Mus musculus)
Sequence (Q7TMA4 whole entry): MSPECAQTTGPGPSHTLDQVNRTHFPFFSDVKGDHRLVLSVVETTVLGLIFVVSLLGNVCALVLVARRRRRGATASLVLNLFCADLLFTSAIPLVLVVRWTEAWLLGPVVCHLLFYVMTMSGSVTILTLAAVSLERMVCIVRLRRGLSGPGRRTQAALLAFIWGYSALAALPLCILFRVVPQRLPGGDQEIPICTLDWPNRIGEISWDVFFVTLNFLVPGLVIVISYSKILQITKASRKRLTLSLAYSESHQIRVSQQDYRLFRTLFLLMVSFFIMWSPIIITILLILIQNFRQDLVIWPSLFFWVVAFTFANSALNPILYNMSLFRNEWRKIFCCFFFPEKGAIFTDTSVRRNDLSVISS
TEST_NAME: Calcium flux assay in CHO cells expressing mouse GPR120
READOUT_NAME: EC50 (nM)
Could you give me the number in nM? Just the number is fine.

Look up EC50 for this compound: O=C(O)CCCOc1ccc(COc2cc(F)ccc2-c2ccc(F)cc2)cc1F [Compound 14d] 83.2

----------
SYSTEM: human GPR120 (hGPR120) (Homo sapiens, UniProt Q5NUL3)
Sequence (Q5NUL3 whole entry): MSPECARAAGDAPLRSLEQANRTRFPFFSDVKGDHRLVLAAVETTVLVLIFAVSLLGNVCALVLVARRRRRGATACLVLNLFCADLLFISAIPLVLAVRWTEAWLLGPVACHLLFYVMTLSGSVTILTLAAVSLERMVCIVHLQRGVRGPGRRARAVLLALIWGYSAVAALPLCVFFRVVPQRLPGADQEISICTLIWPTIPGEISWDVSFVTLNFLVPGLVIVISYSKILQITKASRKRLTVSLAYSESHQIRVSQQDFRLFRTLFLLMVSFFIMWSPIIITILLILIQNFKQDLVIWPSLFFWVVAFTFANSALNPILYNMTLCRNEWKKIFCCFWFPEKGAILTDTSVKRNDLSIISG
TEST_NAME: Calcium flux assay in hGPR120-transfected CHO cells
Item-by-item account of pEC50
Note on units: pEC50 is unitless, being -log10 of a concentration expressed in mol/L.

- Cc1ccc(-c2ccc(F)cc2OCc2ccc(OCCC(=O)O)c(C)c2)cc1 [Compound 10f]: 6.57

Quick check: pEC50 of Cc1ccc(-c2ccc(F)cc2OCc2ccc(OCCCC(=O)O)c(F)c2)cc1 [Compound 10k] ? 7.24

Can you share its pEC50? I mean this compound: Cc1ccc(-c2ccc(F)cc2OCc2ccc(OCCC(=O)O)c(F)c2)cc1 [Compound 10j] 6.95

Which pEC50 reading was recorded for the compound Cc1ccc(-c2ccc(F)cc2OCc2ccc(OCCC(=O)O)cc2)cc1 [Compound 10b] ? 6.66

For the compound shown here, Cc1ccc(-c2ccc(F)cc2OCc2ccc(OCC(=O)O)c(F)c2)cc1 [Compound 10i] , give the reported pEC50. 7.11

// query pEC50 value for entry Cc1ccc(-c2ccc(F)cc2OCc2ccc(OCCCC(=O)O)c(F)c2)c(Cl)c1 [Compound 14m] 6.73

Return reported pEC50; argument: Cc1ccc(-c2ccc(F)cc2OCc2ccc(OCCCC(=O)O)c(F)c2)c(C)c1 [Compound 14i] 6.80

Would you mind telling me what pEC50 value was observed for Cc1ccc(-c2ccc(F)cc2OCc2ccc(OCCCCC(=O)O)c(C)c2)cc1 [Compound 10h] ? 6.69

Which measured pEC50 value corresponds to O=C(O)CCCOc1ccc(COc2cc(F)ccc2-c2ccccc2F)cc1F [Compound 14c] ? 6.77

For the compound Cc1ccc(-c2ccc(F)cc2OCc2ccc(OCC(=O)O)cc2)cc1 [Compound 10a] , what pEC50 is on record? 7.03

----------
SYSTEM: human GPR120 (hGPR120) (Homo sapiens, UniProt Q5NUL3)
TEST_NAME: Calcium flux assay in hGPR120-transfected CHO cells
Threshold check on EC50: strictly below 0.1 µM is TRUE; on or above 0.1 µM is FALSE.

Here are 4 compounds together with their reported answers.
- Cc1ccc(-c2ccc(F)cc2OCc2ccc(OCCCCC(=O)O)c(F)c2)cc1 [Compound 10l]: TRUE
- Cc1ccc(-c2ccc(F)cc2OCc2ccc(OCC(=O)O)c(C)c2)cc1 [Compound 10e]: FALSE
- Cc1cccc(-c2ccc(F)cc2OCc2ccc(OCCCC(=O)O)c(F)c2)c1 [Compound 14b]: TRUE
- Cc1ccc(-c2ccc(F)cc2OCc2ccc(OCCCC(=O)O)c(F)c2)c(F)c1 [Compound 14n]: FALSE

Now look at this one.
Is EC50 strictly under 0.1 µM for the entry Cc1ccccc1-c1ccc(F)cc1OCc1ccc(OCCCC(=O)O)c(F)c1 [Compound 14a] ? TRUE
